Assay: Toxicity liver stage against HepG2, at 10uM
Format: cell-based
Parameters: test concentration 10 uM, cell line HepG2-A16-CD81EGFP
Conditions: human, HepG2-A16-CD81EGFP cells; read-out: INHIBITION
QUANTITY_NAME: cytotoxicity at 10 µM (%)

O=C(c1cccnc1)N1CCC2(CC1)CCN(Cc1ccccn1)C2=O | 2.78
Fc1cccc2ncnc(NCC3(N4CCOCC4)CCSC3)c12 (configuration not stated) | 50.6
CCCOCCNc1nc2c(s1)c(C)nn2C | -15.9
CN(Cc1ccc(F)cc1)CC1(O)CCN(C(=O)c2cccs2)C1 (configuration not stated) | -12.6
COCCNc1ccc(CC2CCCN(Cc3c[nH]cn3)C2)nn1 (configuration not stated) | -2.7
CS(=O)(=O)c1nnc(NC(=O)CCc2cc(F)ccc2F)[nH]1 | -16.6
COc1cc(C(=O)Nc2nc(C)no2)cc(OC)c1Br | -8.78
COCCn1ccnc1C1CCCN(C(=O)c2cccnc2SC)C1 (configuration not stated) | -14.2
CCC(=O)NCc1cc(Br)ccc1OC(F)F | 17.2
CO[C@@H]1CCN(S(=O)(=O)c2cccs2)[C@H]1Cc1ccccc1 | -78
O=C(c1cnco1)N1C[C@@H](O)[C@H](Oc2cccc(F)c2)C1 | -17.5
Cc1cccc(CN2C[C@@H]3COC[C@]3(COCC(=O)N(C)C)C2)n1 | -1.95

The measurements presented in this section are drawn from ChEMBL document CHEMBL4513216.
